Values compiled from ChEMBL document CHEMBL4483862.

- Tested on: Plasmodium berghei
- Experiment Description: Luciferase/luciferin-expressing antifolate-resistant parasites were used to infect a culture of HepG2 cells that were pre-incubated with compounds. Infected hepatocytes emit light due to the luciferase reaction. Assay results are presented as the percent inhibition of light emission compared to control. […]
- Format: functional
- Assay Setup: sporozoite, PBLUC_HILL_SLOPE 12.3, PBLUC_R_SQUARED 0.199, read-out: LUCIFERASE INFECTION ASSAY - IC50
Quantity Kind: IC50 (µM)
Dear colleague, please return just the value in µM, with no unit written.

Given the compound CN(C)C(CNc1ncnc2sc(-c3ccccc3)cc12)c1ccco1 (stereo unspecified) , what is its reported IC50? 9.76

###

- Test system: Plasmodium berghei
- Experiment Description: Luciferase/luciferin-expressing antifolate-resistant parasites were used to infect a culture of HepG2 cells that were pre-incubated with compounds. Infected hepatocytes emit light due to the luciferase reaction. Assay results are presented as the percent inhibition of light emission compared to control. […]
- Format: functional
- Assay Setup: sporozoite, FFLUC_HILL_SLOPE 12.3, FFLUC_R_SQUARED 0.419, PBLUC_HILL_SLOPE 4.64, PBLUC_R_SQUARED 0.375, read-out: LUCIFERASE INFECTION ASSAY - IC50
Quantity Kind: pIC50
Keep in mind that pIC50 stands for -log10 of concentration in molar terms.

Given the molecule CCCCn1c(N)c(N(C)CC(=O)Nc2scc(-c3ccccc3)c2C(=O)OCC)c(=O)[nH]c1=O , what is its reported pIC50? 5.29

###

- System: Plasmodium berghei
- Experiment Description: Luciferase/luciferin-expressing antifolate-resistant parasites were used to infect a culture of HepG2 cells that were pre-incubated with compounds. Infected hepatocytes emit light due to the luciferase reaction. Assay results are presented as the percent inhibition of light emission compared to control. […]
- Type: functional
- Assay Setup: sporozoite, PBLUC_HILL_SLOPE 2.52, PBLUC_R_SQUARED 0.605, read-out: LUCIFERASE INFECTION ASSAY - IC50
Quantity Kind: pIC50
Keep in mind that pIC50 stands for -log10 of concentration in molar terms.

Given the compound CC(C)NC(=O)NCc1ccc(C(=O)OCC(=O)C(C#N)=C2Nc3ccccc3N2)cc1 , what is its reported pIC50? 5.54

###

- Test system: Plasmodium berghei
- Experiment Description: Luciferase/luciferin-expressing antifolate-resistant parasites were used to infect a culture of HepG2 cells that were pre-incubated with compounds. Infected hepatocytes emit light due to the luciferase reaction. Assay results are presented as the percent inhibition of light emission compared to control. […]
- Format: functional
- Assay Setup: sporozoite, PBLUC_HILL_SLOPE 3.31, PBLUC_R_SQUARED 0.251, read-out: LUCIFERASE INFECTION ASSAY - IC50
Quantity Kind: IC50 (µM)
Dear colleague, please return just the value in µM, with no unit written.

Given the compound CCc1ccc(-c2nc(C(=O)Nn3cn[nH]c3=S)cs2)cc1 , what is its reported IC50? 5.44

###

- System: Plasmodium berghei
- Experiment Description: Luciferase/luciferin-expressing antifolate-resistant parasites were used to infect a culture of HepG2 cells that were pre-incubated with compounds. Infected hepatocytes emit light due to the luciferase reaction. Assay results are presented as the percent inhibition of light emission compared to control. […]
- Type: functional
- Assay Setup: sporozoite, PBLUC_HILL_SLOPE 3.85, PBLUC_R_SQUARED 0.565, read-out: LUCIFERASE INFECTION ASSAY - IC50
Quantity Kind: pIC50
Keep in mind that pIC50 stands for -log10 of concentration in molar terms.

Given the compound Cc1cc(C)cc(NC(=S)NC2CCCC(C)C2C)c1 (stereo unspecified) , what is its reported pIC50? 5.27

###

- Test system: Plasmodium berghei
- Experiment Description: Luciferase/luciferin-expressing antifolate-resistant parasites were used to infect a culture of HepG2 cells that were pre-incubated with compounds. Infected hepatocytes emit light due to the luciferase reaction. Assay results are presented as the percent inhibition of light emission compared to control. […]
- Assay type: functional
- Assay Setup: sporozoite, HEPG2TOX_HILL_SLOPE 2.93, HEPG2TOX_R_SQUARED 0.419, PBLUC_HILL_SLOPE 1.84, PBLUC_R_SQUARED 0.699, read-out: LUCIFERASE INFECTION ASSAY - IC50
Quantity Kind: pIC50
Keep in mind that pIC50 stands for -log10 of concentration in molar terms.

Given the molecule CCOc1ccc(C(C)=O)cc1CSc1nc2ccccc2c(=O)n1C(C)COC (stereo unspecified) , what is its reported pIC50? 5.92

###

- Tested on: Plasmodium berghei
- Experiment Description: Luciferase/luciferin-expressing antifolate-resistant parasites were used to infect a culture of HepG2 cells that were pre-incubated with compounds. Infected hepatocytes emit light due to the luciferase reaction. Assay results are presented as the percent inhibition of light emission compared to control. […]
- Type: functional
- Assay Setup: sporozoite, HEPG2TOX_HILL_SLOPE 1.22, HEPG2TOX_R_SQUARED 0.961, PBLUC_HILL_SLOPE 11.3, PBLUC_R_SQUARED 0.508, read-out: LUCIFERASE INFECTION ASSAY - IC50
Quantity Kind: IC50 (µM)
Dear colleague, please return just the value in µM, with no unit written.

Provide value of IC50 for this record tested with Plasmodium berghei: CCN(CCNc1ncnc2sc3c(c12)CCC3)c1cccc(C)c1 1.18

###

- Tested on: Plasmodium berghei
- Experiment Description: Luciferase/luciferin-expressing antifolate-resistant parasites were used to infect a culture of HepG2 cells that were pre-incubated with compounds. Infected hepatocytes emit light due to the luciferase reaction. Assay results are presented as the percent inhibition of light emission compared to control. […]
- Format: functional
- Assay Setup: sporozoite, PBLUC_HILL_SLOPE 1.46, PBLUC_R_SQUARED 0.342, read-out: LUCIFERASE INFECTION ASSAY - IC50
Quantity Kind: pIC50
Keep in mind that pIC50 stands for -log10 of concentration in molar terms.

Given the molecule Cc1cccc(C)c1Nc1nnc(C(O)c2ccc(F)c(Cl)c2)s1 (stereo unspecified) , what is its reported pIC50? 5.53

###

- Test system: Plasmodium berghei
- Experiment Description: Luciferase/luciferin-expressing antifolate-resistant parasites were used to infect a culture of HepG2 cells that were pre-incubated with compounds. Infected hepatocytes emit light due to the luciferase reaction. Assay results are presented as the percent inhibition of light emission compared to control. […]
- Type: functional
- Assay Setup: sporozoite, HEPG2TOX_HILL_SLOPE 9.49, HEPG2TOX_R_SQUARED 0.952, PBLUC_HILL_SLOPE 2.17, PBLUC_R_SQUARED 0.422, read-out: LUCIFERASE INFECTION ASSAY - IC50
Quantity Kind: pIC50
Keep in mind that pIC50 stands for -log10 of concentration in molar terms.

Provide value of pIC50 for this record tested with Plasmodium berghei: Cc1cc(=O)nc(N/N=C/c2c(C)nn(-c3cccc(C(F)(F)F)c3)c2Cl)[nH]1 5.54

###

- Tested on: Plasmodium berghei
- Experiment Description: Luciferase/luciferin-expressing antifolate-resistant parasites were used to infect a culture of HepG2 cells that were pre-incubated with compounds. Infected hepatocytes emit light due to the luciferase reaction. Assay results are presented as the percent inhibition of light emission compared to control. […]
- Type: functional
- Assay Setup: sporozoite, HEPG2TOX_HILL_SLOPE 6.4, HEPG2TOX_R_SQUARED 0.335, PBLUC_HILL_SLOPE 2.71, PBLUC_R_SQUARED 0.0983, read-out: LUCIFERASE INFECTION ASSAY - IC50
Quantity Kind: pIC50
Keep in mind that pIC50 stands for -log10 of concentration in molar terms.

Given the molecule CCOc1ccccc1N(C(=O)C1CC=CCC1)c1nc2ccccc2s1 (stereo unspecified) , what is its reported pIC50? 5.11

###

- System: Plasmodium berghei
- Experiment Description: Luciferase/luciferin-expressing antifolate-resistant parasites were used to infect a culture of HepG2 cells that were pre-incubated with compounds. Infected hepatocytes emit light due to the luciferase reaction. Assay results are presented as the percent inhibition of light emission compared to control. […]
- Format: functional
- Assay Setup: sporozoite, PBLUC_HILL_SLOPE 428, PBLUC_R_SQUARED 0.387, read-out: LUCIFERASE INFECTION ASSAY - IC50
Quantity Kind: IC50 (µM)
Dear colleague, please return just the value in µM, with no unit written.

Given the molecule COc1ccc(N2C(=N)C(c3nc4ccccc4s3)C(=O)C2c2ccccc2)cc1 (stereo unspecified) , what is its reported IC50? 4.04

###

- System: Plasmodium berghei
- Experiment Description: Luciferase/luciferin-expressing antifolate-resistant parasites were used to infect a culture of HepG2 cells that were pre-incubated with compounds. Infected hepatocytes emit light due to the luciferase reaction. Assay results are presented as the percent inhibition of light emission compared to control. […]
- Type: functional
- Assay Setup: sporozoite, PBLUC_HILL_SLOPE 17.5, PBLUC_R_SQUARED 0.669, read-out: LUCIFERASE INFECTION ASSAY - IC50
Quantity Kind: pIC50
Keep in mind that pIC50 stands for -log10 of concentration in molar terms.

Given the compound CCOC(=O)c1nn(Cc2cccc(OC)c2)c2c1CN(C(=O)c1cc3ccccc3o1)CC2 , what is its reported pIC50? 5.15
